biological target: Cholinesterase (Homo sapiens, UniProt P06276); assay: Inhibition of human serum BuChE using butyrylthiocholine iodide as substrate preincubated for 15 mins before substrate addition by Ellman's method
Sequence (P06276 whole entry): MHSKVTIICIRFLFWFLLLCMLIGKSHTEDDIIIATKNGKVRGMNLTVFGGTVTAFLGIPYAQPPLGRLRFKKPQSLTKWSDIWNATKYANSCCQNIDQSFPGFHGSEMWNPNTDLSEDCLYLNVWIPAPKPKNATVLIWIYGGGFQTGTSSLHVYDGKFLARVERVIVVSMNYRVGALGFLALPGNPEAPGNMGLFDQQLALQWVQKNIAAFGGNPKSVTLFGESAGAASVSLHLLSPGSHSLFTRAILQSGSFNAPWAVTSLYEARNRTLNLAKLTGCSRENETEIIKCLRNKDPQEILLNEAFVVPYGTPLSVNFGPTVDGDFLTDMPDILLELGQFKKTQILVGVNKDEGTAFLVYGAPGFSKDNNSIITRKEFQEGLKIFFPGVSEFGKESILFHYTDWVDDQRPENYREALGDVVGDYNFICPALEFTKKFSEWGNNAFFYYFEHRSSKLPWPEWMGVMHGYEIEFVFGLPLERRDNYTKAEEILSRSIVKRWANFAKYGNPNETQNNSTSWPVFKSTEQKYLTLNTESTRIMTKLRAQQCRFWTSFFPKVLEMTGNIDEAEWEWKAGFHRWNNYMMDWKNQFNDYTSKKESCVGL
Catalogue of IC50 values
recordedMetric: IC50

[
  {
    "moleculeSmiles": "CN(CCCOc1ccc2ccc(=O)oc2c1)Cc1cccc(OC(=O)NCCCCCCCN2CCOCC2)c1",
    "result": "11.2 nM"
  },
  {
    "moleculeSmiles": "CN(CCCOc1ccc2c(=O)c3cccnc3oc2c1)Cc1cccc(OC(=O)NCCCCCc2ccccc2)c1",
    "result": "1.71 nM"
  },
  {
    "moleculeSmiles": "CN(CCCOc1ccc2ccc(=O)oc2c1)Cc1cccc(OC(=O)NCCCCCc2ccccc2)c1",
    "result": "1.57 nM"
  },
  {
    "moleculeSmiles": "CN(CCCOc1ccc2c(=O)c3cccnc3oc2c1)Cc1cccc(OC(=O)NCCCCCCCN2CCOCC2)c1",
    "result": "27.6 nM"
  }
]

---

Molecular target: UniProt P97612
Sequence (P97612 whole entry): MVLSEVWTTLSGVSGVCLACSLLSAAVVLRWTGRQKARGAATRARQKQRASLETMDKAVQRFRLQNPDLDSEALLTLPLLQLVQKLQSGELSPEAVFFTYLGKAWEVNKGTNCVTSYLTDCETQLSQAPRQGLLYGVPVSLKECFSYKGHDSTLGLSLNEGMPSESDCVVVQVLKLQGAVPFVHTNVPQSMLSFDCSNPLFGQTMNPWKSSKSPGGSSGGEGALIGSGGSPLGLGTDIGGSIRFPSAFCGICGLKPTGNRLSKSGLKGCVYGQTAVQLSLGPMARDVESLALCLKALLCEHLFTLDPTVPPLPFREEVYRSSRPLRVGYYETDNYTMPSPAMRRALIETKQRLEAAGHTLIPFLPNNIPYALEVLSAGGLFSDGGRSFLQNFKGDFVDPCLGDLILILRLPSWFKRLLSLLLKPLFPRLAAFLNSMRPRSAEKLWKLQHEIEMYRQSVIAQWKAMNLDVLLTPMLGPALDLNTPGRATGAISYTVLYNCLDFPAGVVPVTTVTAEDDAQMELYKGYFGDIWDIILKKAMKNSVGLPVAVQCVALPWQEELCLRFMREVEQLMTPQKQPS
Experiment: Inhibition of FAAH in rat brain membranes assessed as hydrolysis of [14C]-anandamide after 30 mins
Format: cell membranes
pIC50: −log10 of the molar value.
recordedMetric: pIC50

[
  {
    "moleculeSmiles": "CN(CCCOc1ccc2ccc(=O)oc2c1)Cc1cccc(OC(=O)NCCCCCc2ccccc2)c1",
    "testSystem": "UniProt P97612",
    "resultNumber": 6.55
  },
  {
    "moleculeSmiles": "CNC(=O)Oc1cccc(CN(C)CCCCCCCOc2ccc(-c3cc4ccccc4oc3=O)cc2)c1",
    "testSystem": "UniProt P97612",
    "resultNumber": 5.04
  },
  {
    "moleculeSmiles": "CCCCCCCNC(=O)Oc1cccc(CN(C)CCCOc2ccc3c(=O)c4cccnc4oc3c2)c1",
    "testSystem": "UniProt P97612",
    "resultNumber": 5.66
  },
  {
    "moleculeSmiles": "CCCCCCCNC(=O)Oc1cccc(CN(C)CCCOc2ccc3ccc(=O)oc3c2)c1",
    "testSystem": "UniProt P97612",
    "resultNumber": 6.21
  },
  {
    "moleculeSmiles": "CCCCCCCNC(=O)Oc1cccc(CN(C)CCCOc2ccc3c(=O)c4ccccc4oc3c2)c1",
    "testSystem": "UniProt P97612",
    "resultNumber": 5.44
  },
  {
    "moleculeSmiles": "CN(CCCOc1ccc2c(=O)c3cccnc3oc2c1)Cc1cccc(OC(=O)NCCCCCc2ccccc2)c1",
    "testSystem": "UniProt P97612",
    "resultNumber": 6.43
  },
  {
    "moleculeSmiles": "CCCCCCCNC(=O)Oc1cccc(CN(C)CCCOc2ccc3c(=O)cc(-c4ccccc4)oc3c2)c1",
    "testSystem": "UniProt P97612",
    "resultNumber": 5.17
  },
  {
    "moleculeSmiles": "CCCCNC(=O)Oc1cccc(CN(C)CCCOc2ccc3c(=O)c4cccnc4oc3c2)c1",
    "testSystem": "UniProt P97612",
    "resultNumber": 5.37
  },
  {
    "moleculeSmiles": "CN(CCCOc1ccc2ccc(=O)oc2c1)Cc1cccc(OC(=O)NCCCCCCCN2CCOCC2)c1",
    "testSystem": "UniProt P97612",
    "resultNumber": 5.25
  }
]
